Where a name gives a salt, the structure may show the parent alone.
METRIC_NAME: melting point

>>> reported_measurement("CCC(CC)Oc1cc(C)nc(Oc2c(C)cc(C)cc2C)c1[N+](=O)[O-]")
"106 to 109 °C"
>>> reported_measurement("CCC(CC)Nc1cc(C)nc(Oc2c(C)cc(C)nc2C)c1C(N)=O")
"164.3 °C"
>>> reported_measurement("CCC(CC)Oc1cc(C)nc2c1n(C)c(=O)n2-c1c(C)cc(C)cc1C")
"151 to 153 °C"
>>> reported_measurement("CCC(CC)Nc1cc(C)nc(Oc2c(C)cc(C)cc2C)c1NC(=O)C(C)Cl (centres unmarked)")
"170 to 172 °C"
>>> reported_measurement("CCC(CC)Oc1nc(C)nc(Nc2c(C)cc(C)cc2C)c1CO")
"121 to 123 °C"
>>> reported_measurement("CCC(CC)Nc1cc(C)nc(Oc2c(C)cc(C)cc2C)c1NC(=O)CCCl")
"183 to 185 °C"
>>> reported_measurement("CCC(CC)Nc1cc(C)nc2c1nc(N)n2-c1c(C)cc(C)cc1C")
"158 to 160 °C"
>>> reported_measurement("CCC(CC)Oc1nc(C)nc(Nc2c(C)cc(C)cc2C)c1C(N)=O")
"174 to 176 °C"
>>> reported_measurement("CCC(CC)Oc1cc(C)nc2c1[nH]c(=O)n2-c1c(C)cc(C)cc1C")
"184 to 186 °C"
>>> reported_measurement("CCC(Nc1cc(C)nc(Oc2c(C)cc(Cl)cc2C)c1CO)C(C)O (centres unmarked)")
"180 to 182 °C"
>>> reported_measurement("CCC(CC)Oc1cc(C)nc(Nc2c(C)cc(C)cc2C)c1CN(C)C.Cl")
"85 to 88 °C"
>>> reported_measurement("CCC(CC)Oc1cc(C)nc(Nc2c(C)cc(C)cc2C)c1CC(C(=O)OC)C(=O)OC")
"96 to 98 °C"
>>> reported_measurement("CCC(CC)Nc1cc(C)nc(Oc2c(C)cc(OC)cc2C)c1C(N)=O")
"184 °C"
>>> reported_measurement("CCC(O)C(CC)Nc1cc(C)nc(Oc2c(C)cc(Cl)cc2C)c1CO (centres unmarked)")
"145 to 148 °C"
>>> reported_measurement("CCC(CC)Oc1cc(C)nc(Nc2c(C)cc(C)cc2C)c1C(=O)n1ccnc1")
"120 to 122 °C"
>>> reported_measurement("CCOC(=S)SCc1c(OC(CC)CC)cc(C)nc1Nc1c(C)cc(C)cc1C")
"55 to 57 °C"
>>> reported_measurement("CCC(Nc1cc(C)nc(Oc2c(C)cc(OC)cc2C)c1C(=O)NC)C(C)OC (centres unmarked)")
"122.6 °C"
>>> reported_measurement("C#CC(CC)Nc1cc(C)nc(Oc2c(C)cc(C)cc2C)c1C(=O)O (centres unmarked)")
"131 to 133 °C"
>>> reported_measurement("CCC(CC)Oc1cc(C)nc(Nc2c(C)cc(C)cc2C)c1")
"98 to 100 °C"
>>> reported_measurement("CCC(COC)Nc1cc(C)nc(Oc2c(C=O)cccc2OC)c1[N+](=O)[O-] (centres unmarked)")
"126.5 to 130.5 °C"
>>> reported_measurement("CC[C@H]1COC(=O)N1c1cc(C)nc(Oc2c(C)cc(Cl)cc2C)c1C(=O)OC")
"144 to 145.5 °C"
>>> reported_measurement("CCC(CC)Oc1cc(C)nc(Nc2c(C)cc(C)cc2C)c1C(N)=O (as salt: HCl)")
"185 to 187 °C"
>>> reported_measurement("CCC(CC)Nc1cc(C)nc(Nc2c(C)cc(C)cc2C)c1CC(C(=O)OC)C(=O)OC")
"136 to 138 °C"
>>> reported_measurement("CCC(CC)Oc1cc(C)nc(Nc2c(C)cc(C)cc2C)c1NC(=O)CCl")
"79 to 82 °C"
>>> reported_measurement("CCC(CC)Oc1nc(C)nc(Nc2c(C)cc(C)cc2C)c1C(=O)O")
"118 to 120 °C"
>>> reported_measurement("CCC(CC)Nc1cc(C)nc(Oc2c(C)cc(C)cc2C)c1CN")
"117 to 119 °C"
>>> reported_measurement("CCC(CC)Oc1cc(C)nc(Nc2c(C)cc(C)cc2C)c1CNC(=O)CCl")
"142 to 144 °C"
>>> reported_measurement("CCC(COC)Nc1cc(C)nc(Oc2ccc(OC(F)(F)F)cc2)c1[N+](=O)[O-] (centres unmarked)")
"75 to 76 °C"
>>> reported_measurement("CCC(CC)Nc1cc(C)nc(Nc2c(C)cc(C)cc2C)c1C(N)=O")
"204 to 206 °C"
>>> reported_measurement("CCC(COC)Nc1cc(C)nc(Oc2c(OC)cc(OC)cc2OC)c1[N+](=O)[O-] (centres unmarked)")
"126.8 to 129.5 °C"
>>> reported_measurement("CCC(CC)Oc1cc(C)nc(Nc2c(C)cc(C)cc2C)c1C(=O)N(C)C (as salt: HCl)")
"197 to 200 °C"
>>> reported_measurement("Cc1cc(C)c(Oc2nc(C)cc(C(O)C(F)(F)F)c2C)c(C)c1 (centres unmarked)")
"134 to 139 °C"

src = patent US6833378B2
